Consider the following compounds and their measured pIC50 readings.
Target: full-length RORγt in Jurkat cells (Homo sapiens (Human), UniProt P51449)
Sequence (P51449 other isoform, or with tags, fused parts or gaps): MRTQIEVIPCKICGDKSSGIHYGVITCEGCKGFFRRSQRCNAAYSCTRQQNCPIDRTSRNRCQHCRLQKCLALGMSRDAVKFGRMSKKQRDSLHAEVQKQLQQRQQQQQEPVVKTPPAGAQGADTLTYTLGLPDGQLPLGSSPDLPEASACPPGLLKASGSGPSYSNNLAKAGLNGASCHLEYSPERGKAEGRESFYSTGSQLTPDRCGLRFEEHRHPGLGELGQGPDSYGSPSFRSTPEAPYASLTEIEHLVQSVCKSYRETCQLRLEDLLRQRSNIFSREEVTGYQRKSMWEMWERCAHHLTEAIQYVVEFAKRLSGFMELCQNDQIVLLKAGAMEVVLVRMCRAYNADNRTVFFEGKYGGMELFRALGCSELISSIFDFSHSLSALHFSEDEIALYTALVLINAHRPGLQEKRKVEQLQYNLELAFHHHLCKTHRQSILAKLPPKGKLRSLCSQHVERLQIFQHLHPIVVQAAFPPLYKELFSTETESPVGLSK
Assay: RORγt 5xRORE Assay in Jurkat Cells (Assay 2)
Assay type: cell-based
Settings: Nanoluc luciferase reporter, 16-18 hrs, Table 9, read-out: RORγt5X IC50 Range*
pIC50: −log10 of the molar value.

Recorded results for 3 compounds are shown here.
CC(C)[C@@H]1c2nc(NC(=O)Cc3ccc(S(C)(=O)=O)cc3)sc2CN1Cc1ccc(C(F)(F)F)cc1F | 6.00 to 7.00
CC1(C)c2nc(NC(=O)Cc3ccc(S(C)(=O)=O)cc3)sc2CN1c1nccc(C(F)(F)F)n1 | < 6.00
CC(C)[C@@H]1c2nc(NC(=O)Cc3ccc(S(C)(=O)=O)cc3)sc2CN1Cc1ccc(OC(F)F)cc1 | 6.00 to 7.00

For CC(C)[C@@H]1c2nc(NC(=O)Cc3ccc(S(C)(=O)=O)cc3)sc2CN1Cc1cccc(Br)c1 the compound record lists pIC50 as < 6.00

----------
Consider the following molecules and their measured IC50 readings.
Target: full-length RORγt in Jurkat cells (Homo sapiens (Human))
Experiment: RORγt 5xRORE Assay in Jurkat Cells (Assay 2)
Type: cell-based
Settings: Nanoluc luciferase reporter, 16-18 hrs, Table 9, read-out: RORγt5X IC50 Range*

For CCS(=O)(=O)c1ccc(CC(=O)Nc2nc3c(s2)CN([C@@H](C)c2ccc(C#N)cn2)[C@H]3C(C)C)cc1 (single isomer, unassigned) the molecule record lists IC50 as < 100 nM

For CCS(=O)(=O)c1ccc(CC(=O)Nc2nc3c(s2)CN(Cc2ccc(C#N)cc2)[C@@H]3C(C)(C)C)cc1 the molecule record lists IC50 as 100 to 1000 nM

For CC1(C)c2nc(NC(=O)Cc3ccc(S(C)(=O)=O)cc3)sc2CN1Cc1ccc(Cl)cc1 the molecule record lists IC50 as > 1000 nM

For CCS(=O)(=O)c1ccc(CC(=O)Nc2nc3c(s2)CN(Cc2ccc(=O)n(C(F)F)c2)[C@H]3C(C)C)cc1 the molecule record lists IC50 as > 1000 nM

For CCS(=O)(=O)c1ccc(CC(=O)Nc2nc3c(s2)CN(Cc2cc(OC(F)F)ccc2F)[C@@H]3C(C)C)cc1 the molecule record lists IC50 as > 1000 nM

For CCS(=O)(=O)c1ccc(CC(=O)Nc2nc3c(s2)CN(Cc2ccc(OC)cc2)[C@@H]3C(C)C)cc1 the molecule record lists IC50 as > 1000 nM

----------
Target: recombinant RORγ Ligand Binding Domain (LBD) protein (Homo sapiens (Human))
Sequence (P51449 269-508): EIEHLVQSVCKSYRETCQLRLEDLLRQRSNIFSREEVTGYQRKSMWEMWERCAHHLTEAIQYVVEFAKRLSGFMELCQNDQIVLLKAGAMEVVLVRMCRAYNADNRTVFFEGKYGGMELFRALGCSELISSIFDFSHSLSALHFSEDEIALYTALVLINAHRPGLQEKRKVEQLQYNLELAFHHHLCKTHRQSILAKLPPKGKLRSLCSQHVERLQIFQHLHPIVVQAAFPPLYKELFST
Test: Radio-Ligand RORγ Binding Assay (Assay 1)
Settings: competition with 25-hydroxy [26,27-3H]-cholesterol, SPA; Table 9; read-out: RORγ Binding Ki Range*
pKi: −log10 of the molar value.
Quantity Name: pKi

Recorded results for 5 compounds are shown here.
CCS(=O)(=O)c1ccc(CC(=O)Nc2nc3c(s2)CN(C[C@H]2CC[C@@](OC)(C(F)(F)F)CC2)[C@H]3C(C)C)nc1 (single isomer, unassigned) | > 7.00
CCS(=O)(=O)c1ccc(CC(=O)Nc2nc3c(s2)CN([C@@H](C)c2c(F)cc(Cl)cc2F)[C@H]3C(C)C)cc1 (single isomer, unassigned) | > 7.00
CCS(=O)(=O)c1cnc(CC(=O)Nc2nc3c(s2)CN(Cc2ccc(-c4nnn(C)n4)cc2)[C@H]3C(C)C)nc1 | > 7.00
CCS(=O)(=O)c1ccc(CC(=O)Nc2nc3c(s2)CN(C[C@H]2CC[C@@H](C(F)(F)F)N(C4CC4)C2)[C@H]3C(C)C)cc1 (single isomer, unassigned) | > 7.00
CC[C@H]1c2nc(NC(=O)Cc3ccc(CO)cc3)sc2CN1Cc1ccc(Cl)cc1 | > 7.00

So the reported pKi for CCS(=O)(=O)c1ccc(CC(=O)Nc2nc3c(s2)CN([C@@H](C)Cc2ccccc2)[C@@H]3C(C)C)cc1 , on recombinant RORγ Ligand Binding Domain (LBD) protein (Homo sapiens (Human)), turned out to be 6.00 to 7.00

So the reported pKi for CCS(=O)(=O)c1ccc(CC(=O)Nc2nc3c(s2)CN(Cc2ccc(OC)cc2)[C@@H]3C(C)C)cc1 , on recombinant RORγ Ligand Binding Domain (LBD) protein (Homo sapiens (Human)), turned out to be > 7.00

So the reported pKi for CCS(=O)(=O)c1ccc(CNC(=O)c2nc3c(s2)CN(Cc2ccc(C(F)(F)F)nc2)[C@H]3C(C)C)cc1 , on recombinant RORγ Ligand Binding Domain (LBD) protein (Homo sapiens (Human)), turned out to be 6.00 to 7.00

So the reported pKi for CCS(=O)(=O)c1ccc(CC(=O)Nc2nc3c(s2)CN(c2ncc(-c4ccc(=O)n(C)c4)s2)[C@H]3C(C)C)nc1 , on recombinant RORγ Ligand Binding Domain (LBD) protein (Homo sapiens (Human)), turned out to be < 6.00

So the reported pKi for CCS(=O)(=O)c1ccc(CC(=O)Nc2nc3c(s2)CN(C[C@H]2CCCOC2)[C@H]3C(C)C)cc1 (single isomer, unassigned) , on recombinant RORγ Ligand Binding Domain (LBD) protein (Homo sapiens (Human)), turned out to be > 7.00

So the reported pKi for CCS(=O)(=O)c1ccc(CC(=O)Nc2nc3c(s2)CN(Cc2ccc(=O)n(C)c2)[C@H]3C(C)C)cc1 , on recombinant RORγ Ligand Binding Domain (LBD) protein (Homo sapiens (Human)), turned out to be > 7.00

So the reported pKi for CCS(=O)(=O)c1ccc(CC(=O)Nc2nc3c(s2)CN(C[C@H]2CC[C@](C)(OC)CC2)[C@H]3C(C)C)nc1 (single isomer, unassigned) , on recombinant RORγ Ligand Binding Domain (LBD) protein (Homo sapiens (Human)), turned out to be > 7.00

So the reported pKi for CC(C)[C@@H]1c2nc(NC(=O)Cc3ccc(S(C)(=O)=O)cc3)sc2CN1[C@H](C)c1ccc(OC(F)(F)F)cc1 (single isomer, unassigned) , on recombinant RORγ Ligand Binding Domain (LBD) protein (Homo sapiens (Human)), turned out to be 6.00 to 7.00

So the reported pKi for CCS(=O)(=O)c1cnc(CNC(=O)c2nc3c(s2)CN(Cc2ccc(C(F)(F)F)cc2)[C@H]3C(C)C)nc1 , on recombinant RORγ Ligand Binding Domain (LBD) protein (Homo sapiens (Human)), turned out to be > 7.00

So the reported pKi for CC[C@@H]1c2nc(NC(=O)Cc3ccc(S(C)(=O)=O)cc3)sc2CN1Cc1ccc(OC(F)(F)F)nc1 , on recombinant RORγ Ligand Binding Domain (LBD) protein (Homo sapiens (Human)), turned out to be 6.00 to 7.00

So the reported pKi for CCS(=O)(=O)c1ccc(CC(=O)Nc2nc3c(s2)CN([C@@H](C)c2ccc(C#N)cn2)[C@H]3C(C)C)cc1 (single isomer, unassigned) , on recombinant RORγ Ligand Binding Domain (LBD) protein (Homo sapiens (Human)), turned out to be > 7.00
